The measurements presented in this section are drawn from patent US11420973B2.

# IC50 values compiled below
Molecular target: human TLR9 (Homo sapiens (Human), UniProt Q9NR96)
Sequence (Q9NR96 26-1032): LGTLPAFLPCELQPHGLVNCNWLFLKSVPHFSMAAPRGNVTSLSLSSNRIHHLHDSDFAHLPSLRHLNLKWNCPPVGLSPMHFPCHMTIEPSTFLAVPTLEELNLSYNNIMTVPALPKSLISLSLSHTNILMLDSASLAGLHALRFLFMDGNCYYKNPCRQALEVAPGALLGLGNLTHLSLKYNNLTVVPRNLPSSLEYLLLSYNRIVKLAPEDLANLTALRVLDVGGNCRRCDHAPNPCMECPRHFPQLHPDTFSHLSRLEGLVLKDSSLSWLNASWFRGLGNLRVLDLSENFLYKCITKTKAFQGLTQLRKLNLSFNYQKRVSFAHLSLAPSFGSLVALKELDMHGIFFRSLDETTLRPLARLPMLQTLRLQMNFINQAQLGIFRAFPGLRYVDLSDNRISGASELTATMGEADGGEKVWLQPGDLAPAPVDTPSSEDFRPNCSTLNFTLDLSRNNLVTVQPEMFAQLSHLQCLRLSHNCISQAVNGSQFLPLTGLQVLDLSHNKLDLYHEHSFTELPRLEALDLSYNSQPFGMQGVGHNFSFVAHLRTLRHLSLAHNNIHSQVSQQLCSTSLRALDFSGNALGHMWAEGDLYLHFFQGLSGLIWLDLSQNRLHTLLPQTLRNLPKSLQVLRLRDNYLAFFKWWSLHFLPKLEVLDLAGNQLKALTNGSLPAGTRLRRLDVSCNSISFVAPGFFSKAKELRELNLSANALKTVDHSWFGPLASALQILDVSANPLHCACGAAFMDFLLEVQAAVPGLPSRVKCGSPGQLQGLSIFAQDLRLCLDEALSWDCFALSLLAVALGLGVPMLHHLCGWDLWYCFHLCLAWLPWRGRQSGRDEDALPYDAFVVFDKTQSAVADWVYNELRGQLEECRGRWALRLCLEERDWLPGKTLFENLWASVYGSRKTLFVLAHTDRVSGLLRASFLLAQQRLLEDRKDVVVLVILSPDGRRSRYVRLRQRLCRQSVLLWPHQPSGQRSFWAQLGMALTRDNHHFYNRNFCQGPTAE
Test: TLR9 inhibition reporter assay (HEK-Blue SEAP reporter, ODN2006 stimulation);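 further: SEAP reporter under IFN-β minimal promoter with five NF-κB and AP-1 sites, 22 h incubation, compounds 0.05 nM–50 µM, inhibition relative to agonist plus DMSO versus known inhibitor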
Settings: read-out: TLR9 IC50; HEK-Blue cells overexpressing human TLR9, ODN2006 5 nM, SEAP reporter
Property Measured: IC50 (µM)

>>> value_observed("Cc1cc(-c2[nH]c3ccc(C(C)C(=O)N4CCC(N)CC4)cc3c2C(C)C)ccn1 (centres unmarked) [Example 203]")
0.746
>>> value_observed("Cc1cc(-c2[nH]c3ccc(C(C)(C)C(=O)NCC4(O)CN5CCC4CC5)cc3c2C(C)C)ccn1 (centres unmarked) [Example 174]")
2.06
>>> value_observed("Cc1cc(-c2[nH]c3ccc(C(C)C(=O)N4CCC(CN)CC4)cc3c2C(C)C)ccn1 (centres unmarked) [Example 202]")
1.35
>>> value_observed("CCc1c(-c2ccc(OC)c(OC)c2)[nH]c2ccc(C(=O)N(CC)CCN(C)C)cc12 [Example 73]")
4.34
>>> value_observed("CCc1c(-c2ccc(OC)c(OC)c2)[nH]c2ccc(C(=O)N3CCN(CCO)CC3)cc12 [Example 40]")
8.7
